Experiment: CO2 wash test of model fragrance A on cotton fabric (supercritical fluid extractor, GC FID)
Assay type: physicochemical
Settings: fraction, from the wash test of Table 2
ENDPOINT NAME: fraction left on fabric

Recall and state the measured fraction left on fabric for CC(CC=O)CCCC(C)(C)O (stereo not shown) [Hydroxy Citronellal P] .
0.846

Look up and report measured fraction left on fabric for this entry: C=C(C)[C@H]1CC=C(C)CC1
0.977

Give the measured fraction left on fabric for CC(=O)OCC=C(C)C [Prenyl acetate]
0.969

Give the value of fraction left on fabric reported for the following: CCCCC/C(C=O)=C/c1ccccc1
0.83

Give a short answer stating reported fraction left on fabric for C=CC(C)CCCC(C)(C)O (stereo not shown) [Dihydro Myrcenol] .
0.737

Given the compound CCOC(=O)c1ccccc1C(=O)OCC [Diethyl Phthalate] , write its reported fraction left on fabric.
0.807

Provide only the value of recorded fraction left on fabric for CC(=O)OCc1ccccc1 [Benzyl Acetate]
0.799

Indicate its recorded fraction left on fabric; the compound in question is CC(=O)O[C@]1(C)CC[C@@]23C[C@@H]1C(C)(C)[C@@H]2CC[C@H]3C [Cedryl Acetate]
0.834

Note fraction left on fabric for the compound shown: CC(C)=CCCC(C)CCO (stereo not shown)
0.763

For CC(=O)OCCc1ccccc1 [Phenyl Ethyl Acetate] , write its fraction left on fabric.
0.698
